biological target: Rat recombinant α2,3(O)ST (Rattus norvegicus); construct: purchased Calbiochem; test: Sialyltransferase assay with cloned α2,3(O)ST; format: biochemical; conditions: Table I; acceptor 7.5 mM; 100% = 40560 CPM (3-O-MeGalβ1,4GlcNAcβ1,6(Galβ1,3)GalNAcα-O-Bn)
attribute.measured: Sialyltransferase activity (%) Cloned α2,3(O)ST
State the answer as a number, implicitly in %.

Per the record, COC1OC(COC2OC(CO)C(OC3OC(CO)C(O)C(OC4(C(=O)O)CC(O)C(NC(C)=O)C(C(O)C(O)CO)O4)C3O)C(O)C2NC(C)=O)C(O)C(OC2OC(CO)C(O)C(O)C2O)C1NC(C)=O (centres unmarked) has Sialyltransferase activity (%) Cloned α2,3(O)ST of 35.2

====

Target: Rat recombinant α2,6(N)ST (Rattus norvegicus)
Construct: purchased Calbiochem
Sequence (P13721 1-403): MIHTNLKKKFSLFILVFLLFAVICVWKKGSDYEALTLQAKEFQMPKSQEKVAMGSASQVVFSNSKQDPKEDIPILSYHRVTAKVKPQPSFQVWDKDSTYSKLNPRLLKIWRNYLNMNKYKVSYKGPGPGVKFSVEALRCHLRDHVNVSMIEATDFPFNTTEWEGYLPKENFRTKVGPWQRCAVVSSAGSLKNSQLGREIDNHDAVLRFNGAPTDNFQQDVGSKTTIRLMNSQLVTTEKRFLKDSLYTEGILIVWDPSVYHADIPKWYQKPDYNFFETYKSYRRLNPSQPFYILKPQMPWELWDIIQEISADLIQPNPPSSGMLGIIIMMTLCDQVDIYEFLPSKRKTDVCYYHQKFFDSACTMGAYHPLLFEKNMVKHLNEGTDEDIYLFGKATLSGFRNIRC
Test: Sialyltransferase assay with cloned α2,6(N)ST
Type: biochemical
Settings: Table I; acceptor 7.5 mM; 100% = 43500 CPM (Galβ1,4GlcNAcβ-O—Al)
Param label: returns y when Sialyltransferase activity (%) Cloned α2,6(N)ST < 1%, returns n otherwise, including exact equality.

INSERT INTO assay_data (compound, class) VALUES
  ('CO[C@H]1O[C@H](CO[C@@H]2O[C@H](COS(=O)(=O)O)[C@@H](O[C@@H]3O[C@H](CO)[C@H](O)[C@H](O)[C@H]3O)[C@H](O[C@@H]3O[C@@H](C)[C@@H](O)[C@@H](O)[C@@H]3O)[C@H]2NC(C)=O)[C@H](O)[C@H](O[C@@H]2O[C@H](CO)[C@H](O)[C@H](O[C@]3(C(=O)O)C[C@H](O)[C@@H](NC(C)=O)[C@H]([C@H](O)[C@H](O)CO)O3)[C@H]2O)[C@H]1NC(C)=O', 'y'),
  ('CO[C@H]1[C@@H](O)[C@@H](CO)O[C@@H](O[C@H]2[C@@H](O)[C@@H](CO[C@@H]3O[C@H](CO)[C@@H](O[C@@H]4O[C@H](CO)[C@H](O)[C@H](O)[C@H]4O)[C@H](O)[C@H]3NC(C)=O)O[C@H](OCc3ccccc3)[C@@H]2NC(C)=O)[C@@H]1O', 'n'),
  ('CO[C@H]1[C@H](O[C@H]2[C@H](O)[C@@H](NC(C)=O)C(O)O[C@@H]2CO)O[C@H](CO)[C@H](O)[C@@H]1O (stereo partly shown)', 'n'),
  ('CO[C@H]1[C@@H](O)[C@@H](CO)O[C@@H](O[C@H]2[C@H](O)[C@@H](NC(C)=O)[C@H](OC[C@H]3O[C@H](OCc4ccccc4)[C@H](NC(C)=O)[C@@H](O[C@@H]4O[C@H](CO)[C@H](O)[C@H](O)[C@H]4O)[C@H]3O)O[C@@H]2CO)[C@@H]1O', 'n'),
  ('C=CCO[C@H]1O[C@H](CO)[C@H](O)[C@H](O[C@@H]2O[C@H](CO)[C@H](O)[C@H](O)[C@H]2O)[C@H]1NC(C)=O', 'y');

I wonder whether `CO[C@H]1O[C@H](CO)[C@H](O)[C@H](O[C@@H]2O[C@H](CO)[C@H](O)[C@H](O[C@@H]3O[C@H](CO)[C@H](O)[C@H](O)[C@H]3O)[C@H]2NC(C)=O)[C@H]1O` has Sialyltransferase activity (%) Cloned α2,6(N)ST below 1%. Can you tell?
n

I wonder whether `CO[C@H]1O[C@H](CO[C@@H]2O[C@H](CO)[C@@H](O[C@@H]3O[C@H](CO)[C@H](O)[C@H](O)[C@H]3O)[C@H](O[C@@H]3O[C@@H](C)[C@@H](O)[C@@H](O)[C@@H]3O)[C@H]2NC(C)=O)[C@H](O)[C@H](O[C@@H]2O[C@H](CO)[C@H](O)[C@H](O)[C@H]2O)[C@H]1NC(C)=O` has Sialyltransferase activity (%) Cloned α2,6(N)ST below 1%. Can you tell?
n

====

tested on: α1,2-L-FT of breast tumor BC9400; assay: α1,2-L-FT assay, breast tumor extract; format: biochemical, human; details: 1 mg protein of the tissue extract
attribute.measured: α1,2-L-FT activity: incorporation of radioactive sugar (CPM × 10^−3)
State the answer as a number, implicitly in CPM × 10^−3.

Known α1,2-L-FT activity: incorporation of radioactive sugar results, listed for orientation:
INSERT INTO results (record_smiles, target_or_test_system, units, obs_value) VALUES
  ('C=CCO[C@H]1O[C@H](CO)[C@H](O)[C@H](O[C@@H]2O[C@H](CO)[C@H](O)[C@H](O)[C@H]2O)[C@H]1NC(C)=O', 'α1,2-L-FT of breast tumor BC9400', 'CPM × 10^−3', 5.5),
  ('CO[C@H]1O[C@H](CO)[C@H](O)[C@H](O[C@@H]2O[C@H](CO)[C@H](O)[C@H](O[C@@H]3O[C@H](C)[C@H](O)[C@H](O)[C@H]3O)[C@H]2NC(C)=O)[C@H]1O', 'α1,2-L-FT of breast tumor BC9400', 'CPM × 10^−3', 16.2),
  ('CO[C@H]1O[C@H](CO)[C@H](O)[C@H](O[C@@H]2O[C@H](CO)[C@H](O)[C@H](O[C@@H]3O[C@H](CO)[C@H](O)[C@H](O)[C@H]3O)[C@H]2NC(C)=O)[C@H]1O', 'α1,2-L-FT of breast tumor BC9400', 'CPM × 10^−3', 13.7);

The record that follows has no α1,2-L-FT activity: incorporation of radioactive sugar shown yet.
Per the record, `OC[C@H]1O[C@@H](OCc2ccccc2)[C@H](O)[C@@H](O)[C@H]1O` has α1,2-L-FT activity: incorporation of radioactive sugar of 9.8

====

Target: Rat recombinant α2,3(O)ST (Rattus norvegicus, UniProt Q11205)
Construct: purchased Calbiochem
Sequence (Q11205 1-350): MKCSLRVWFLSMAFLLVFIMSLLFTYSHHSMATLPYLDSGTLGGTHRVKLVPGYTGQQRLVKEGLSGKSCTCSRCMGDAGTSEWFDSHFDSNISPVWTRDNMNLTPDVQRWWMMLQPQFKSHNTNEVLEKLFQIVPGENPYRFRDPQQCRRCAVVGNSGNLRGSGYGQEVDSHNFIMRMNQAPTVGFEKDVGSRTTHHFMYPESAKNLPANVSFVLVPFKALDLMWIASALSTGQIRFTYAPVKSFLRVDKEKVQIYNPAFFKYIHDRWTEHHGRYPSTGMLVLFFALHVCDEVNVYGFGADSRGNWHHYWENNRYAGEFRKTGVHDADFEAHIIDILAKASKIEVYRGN
Assay: Sialyltransferase assay with cloned α2,3(O)ST
Format: biochemical
Settings: Table III; compound 7.5 mM; 100% = 39200 CPM (3-O-MeGalβ1,4GlcNAcβ1,6(Galβ1,3)GalNAcα-O-Bn)
Recorded Cloned Sialyltransferase Activities α2,3(O) ST % for the following compounds
State the answer as a number, implicitly in %.

INSERT INTO results (record_smiles, obs_value) VALUES
  ('CC(=O)N[C@H]1[C@H](OC[C@H]2O[C@H](OCc3ccccc3)[C@H](NC(C)=O)[C@@H](O[C@@H]3O[C@H](CO)[C@H](O)[C@H](F)[C@H]3O)[C@H]2O)O[C@H](CO)[C@@H](O[C@@H]2O[C@H](CO)[C@H](O)[C@H](O)[C@H]2O)[C@@H]1O', 77.2),
  ('CC(=O)N[C@H]1[C@H](OC[C@H]2O[C@H](OCc3ccccc3)[C@H](NC(C)=O)[C@@H](O[C@@H]3O[C@H](CO)[C@H](O)[C@H](O)[C@H]3O)[C@H]2O)O[C@H](CO)[C@@H](O[C@@H]2O[C@H](CO)[C@H](F)[C@H](O)[C@H]2O)[C@@H]1O', 102.1);

Per the record, `CO[C@@H]1[C@H](O)[C@@H](O)[C@H](O[C@H]2[C@@H](O)[C@@H](CO[C@@H]3O[C@H](CO)[C@@H](O[C@@H]4O[C@H](CO)[C@H](O)[C@H](O)[C@H]4O)[C@H](O)[C@H]3NC(C)=O)O[C@H](OCc3ccccc3)[C@@H]2NC(C)=O)O[C@@H]1CO` has Cloned Sialyltransferase Activities α2,3(O) ST % of 101.3

Per the record, `CO[C@H]1[C@@H](O)[C@@H](CO)O[C@@H](O[C@H]2[C@@H](O)[C@@H](CO[C@@H]3O[C@H](CO)[C@@H](O[C@@H]4O[C@H](CO)[C@H](O)[C@H](O)[C@H]4O)[C@H](O)[C@H]3NC(C)=O)O[C@H](OCc3ccccc3)[C@@H]2NC(C)=O)[C@@H]1O` has Cloned Sialyltransferase Activities α2,3(O) ST % of 49.6

Per the record, `CO[C@@H]1[C@H](O)[C@@H](O)[C@H](O[C@H]2[C@H](O)[C@@H](NC(C)=O)[C@H](OC[C@H]3O[C@H](OCc4ccccc4)[C@H](NC(C)=O)[C@@H](O[C@@H]4O[C@H](CO)[C@H](O)[C@H](O)[C@H]4O)[C@H]3O)O[C@@H]2CO)O[C@@H]1CO` has Cloned Sialyltransferase Activities α2,3(O) ST % of 103.0
